target.entity: T1, full-length beta-Catenin (Uniprot ID P35222) (Homo sapiens (Human), UniProt P35222 1-781)
T1 construct: The assay text says 'full-length beta-Catenin (Uniprot ID P35222)'; also called bCat; B-Catenin
T1 sequence: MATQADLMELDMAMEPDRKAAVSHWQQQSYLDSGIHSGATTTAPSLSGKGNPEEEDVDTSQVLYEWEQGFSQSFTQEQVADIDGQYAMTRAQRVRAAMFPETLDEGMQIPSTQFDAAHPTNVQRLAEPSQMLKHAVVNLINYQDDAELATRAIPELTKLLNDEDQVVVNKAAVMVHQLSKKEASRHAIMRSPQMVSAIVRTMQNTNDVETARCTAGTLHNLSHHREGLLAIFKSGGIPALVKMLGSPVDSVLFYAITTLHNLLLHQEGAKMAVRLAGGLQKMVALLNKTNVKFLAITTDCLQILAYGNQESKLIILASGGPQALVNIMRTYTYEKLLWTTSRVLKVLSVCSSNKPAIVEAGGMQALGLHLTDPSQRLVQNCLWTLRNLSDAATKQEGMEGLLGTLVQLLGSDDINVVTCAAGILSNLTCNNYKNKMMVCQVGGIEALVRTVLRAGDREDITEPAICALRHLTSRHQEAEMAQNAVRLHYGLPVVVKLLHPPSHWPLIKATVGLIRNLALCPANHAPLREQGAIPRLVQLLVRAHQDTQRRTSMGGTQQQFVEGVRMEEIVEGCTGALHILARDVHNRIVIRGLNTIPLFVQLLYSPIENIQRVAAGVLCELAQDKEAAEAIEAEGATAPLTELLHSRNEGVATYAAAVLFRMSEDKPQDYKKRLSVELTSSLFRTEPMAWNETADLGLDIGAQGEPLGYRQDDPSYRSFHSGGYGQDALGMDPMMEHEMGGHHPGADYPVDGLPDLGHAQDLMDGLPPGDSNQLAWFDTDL
measurement.protocol: fluorescence polarization competition; full-length beta-catenin, competitor 5FAM-TCF4(10-53) probe
Starred links: 1 amine or outer side, 2 acyl side, 3 side chain; linkers in the order of their positions; H or OH if unused. Positions of bridges follow the written chain, without caps; N, C: chain ends. Non-standard residues stand in square brackets, D forms with d. *: point of attachment. B5 = 2-amino-2-(pent-4-en-1-yl)hept-6-enoic acid, C=CCCCC(CCCC=C)(N[*:1])C(=O)[*:2]; Bta = N[C@@H](Cc1csc2ccccc12)C(=O)O; αAllylPro = C=CC[C@@]1(C(=O)O)CCCN1; Azidoacetyl = [N-]=[N+]=NCC(=O)*; S8 = C=CCCCCCC[C@](C)(N)C(=O)O
property.label: EC50 (nM)
Give bare numbers, in nM.

Ac-[αAllylPro]DI[B5]DEAAFK(Azidoacetyl)[S8]F[Bta]Q-NH2 (staple 1-4, 4-11, Stapled peptide composition) [I-594] :: 87
Ac-[αAllylPro]DI[B5]DEAAFQ[S8]F[Bta]QK(Azidoacetyl)-NH2 (staple 1-4, 4-11; not fully specified, Stapled peptide composition; same description as I-596, later eluting HPLC peak (staple isomer)) [I-597] :: 76

Now turn to the next binder.
Qu. Given the binder XDIXDDAAFQXFXH (not fully specified; Ac-PL3-Asp-Ile-B5-Asp-Asp-Ala-Ala-Phe-Gln-S8-Phe-BztA-His-NH2; stapled PL3(1)-B5(4) and B5(4)-S8(11) by olefin metathesis, Stapled peptide composition; same description as I-580, later eluting HPLC peak (staple isomer)) [I-581] , what is its reported EC50?
Ans. 112

Cited source for all entries: patent US20240116985A1
